// values below are reported pKd
Target: equine FcRn (large alpha subunit p51) / equine beta-2-microglobulin complex, biotinylated (equine) (UniProt P30441)
Assay: SPR (Biacore), pH 6
Lab note: report pKd as minus log10 of the concentration in molar units, number only.

Some solved entries appear below for comparison.
binder="equine IgG4 Y436E (antibody, part only; not given: variable domains, not shown: another chain or arm of the molecule) constant: ASTTAPKVFPLASHSAATSGSTVALGCLVSSYFPEPVTVSWNSGALTSGVHTFPSVLQSSGLYSLSSMVTVPASSLKSQTYICNVAHPASSTKVDKKIVIKECNGGCPAECLQVGPSVFIFPPKPKDVLMISRTPTVTCVVVDVGHDFPDVQFNWYVDGVETHTATTEPKQEQFNSTYRVVSVLPIQHKDWLSGKEFKCKVNNKALPAPVERTISKPTGQPREPQVYVLAPHRDELSKNKVSVTCLVKDFYPTDIDIEWKSNGQPEPETKYSTTPAQLDSDGSYFLYSKLTVETNRWQQGTTFTCAVMHEALHNHETEKSVSKSPGK" test_result=7.04
binder="equine IgG1 G426F (antibody, part only; not given: variable domains, not shown: another chain or arm of the molecule) constant: ASTTAPKVFALAPGCGTTSDSTVALGCLVSGYFPEPVKVSWNSGSLTSGVHTFPSVLQSSGFYSLSSMVTVPASTWTSETYICNVVHAASNFKVDKRIEPIPDNHQKVCDMSKCPKCPAPELLGGPSVFIFPPNPKDTLMITRTPEVTCVVVDVSQENPDVKFNWYMDGVEVRTATTRPKEEQFNSTYRVVSVLRIQHQDWLSGKEFKCKVNNQALPQPIERTITKTKGRSQEPQVYVLAPHPDELSKSKVSVTCLVKDFYPPEINIEWQSNGQPELETKYSTTQAQQDSDGSYFLYSKLSVDRNRWQQGTTFTCFVMHEALHNHYTQKNVSKNPGK" test_result=7.88
binder="equine IgG4 A426V (antibody, part only; not given: Variable domains, not shown: another chain or arm of the molecule) constant: ASTTAPKVFPLASHSAATSGSTVALGCLVSSYFPEPVTVSWNSGALTSGVHTFPSVLQSSGLYSLSSMVTVPASSLKSQTYICNVAHPASSTKVDKKIVIKECNGGCPAECLQVGPSVFIFPPKPKDVLMISRTPTVTCVVVDVGHDFPDVQFNWYVDGVETHTATTEPKQEQFNSTYRVVSVLPIQHKDWLSGKEFKCKVNNKALPAPVERTISKPTGQPREPQVYVLAPHRDELSKNKVSVTCLVKDFYPTDIDIEWKSNGQPEPETKYSTTPAQLDSDGSYFLYSKLTVETNRWQQGTTFTCVVMHEALHNHYTEKSVSKSPGK" test_result=7.73

Now, please, on to the next binder.
query: Requested field: pKd. Item: equine IgG1 N434R (antibody, part only; not given: variable domains, not shown: another chain or arm of the molecule) constant: ASTTAPKVFALAPGCGTTSDSTVALGCLVSGYFPEPVKVSWNSGSLTSGVHTFPSVLQSSGFYSLSSMVTVPASTWTSETYICNVVHAASNFKVDKRIEPIPDNHQKVCDMSKCPKCPAPELLGGPSVFIFPPNPKDTLMITRTPEVTCVVVDVSQENPDVKFNWYMDGVEVRTATTRPKEEQFNSTYRVVSVLRIQHQDWLSGKEFKCKVNNQALPQPIERTITKTKGRSQEPQVYVLAPHPDELSKSKVSVTCLVKDFYPPEINIEWQSNGQPELETKYSTTQAQQDSDGSYFLYSKLSVDRNRWQQGTTFTCGVMHEALHRHYTQKNVSKNPGK
result: 7.85
